# Test system: BT-549
# Test: NCI tumour cell line growth inhibition, 48 h
The source made the active and inactive calls. Rule as the data show it: active = GI50 up to about 1.1 µM and inactive = higher.
Labels: active, inactive

1) C=CCNS(=O)(=O)c1ncnc2[nH]cnc12
inactive
2) S=C=NCc1ccccc1 [BENZYL ISOTHIOCYANATE]
inactive
3) O=C1C[C@H]2[C@@H](O1)[C@@H](O)CN1C(=O)c3ccccc3[C@H]21
inactive
4) COc1ccc(-c2cc(=O)c3c(OC)c(OC)c(OC)c(OC)c3o2)cc1
inactive
5) COC(=O)[C@H](Cc1ccccc1)NC(=O)N1CCN(C(=O)N[C@@H](Cc2ccccc2)C(=O)OC)CCN(C(=O)N[C@@H](Cc2ccccc2)C(=O)OC)CC1
inactive
6) C[C@H](N)C(=O)N[C@@H]1[C@H]2C(=C(O)C[C@@H](O)[C@@H]2O)C(=O)O[C@]1(C)C(Cl)Cl
active
7) CN(C)c1ccc(/C(F)=C(F)/C(F)=C(F)/C(F)=C(\F)c2ccc(Br)cc2)cc1
inactive
